B1: Arabidopsis cryptochrome 2, truncated CRY2(535) (residues 1-535), wild type [Arabidopsis thaliana] / itself (parent)
chain: MKMDKKTIVWFRRDLRIEDNPALAAAAHEGSVFPVFIWCPEEEGQFYPGRASRWWMKQSLAHLSQSLKALGSDLTLIKTHNTISAILDCIRVTGATKVVFNHLYDPVSLVRDHTVKEKLVERGISVQSYNGDLLYEPWEIYCEKGKPFTSFNSYWKKCLDMSIESVMLPPPWRLMPITAAAEAIWACSIEELGLENEAEKPSNALLTRAWSPGWSNADKLLNEFIEKQLIDYAKNSKKVVGNSTSLLSPYLHFGEISVRHVFQCARMKQIIWARDKNSEGEESADLFLRGIGLREYSRYICFNFPFTHEQSLLSHLRFFPWDADVDKFKAWRQGRTGYPLVDAGMRELWATGWMHNRIRVIVSSFAVKFLLLPWKWGMKYFWDTLLDADLECDILGWQYISGSIPDGHELDRLDNPALQGAKYDPEGEYIRQWLPELARLPTEWIHHPWDAPLTVLKASGVELGTNYAKPIVDIDTARELLAKAISRTREAQIMIGAAPDEIVADSFEALGANTIKEPGLCPSVSSNDQQVPSAV

Variants of: B1
methodDescription: yeast two-hybrid, quantitative GalUAS-lacZ (beta-galactosidase) reporter assay
experimentalSetup: with itself; light; strain AH109; parent: 220; read off a plot
Recorded response by entry
The response must be a number in Miller units with no trailing unit.

mutationNotation: chain 1 D393A
response, Miller units: 180
//
mutationNotation: chain 1 W374A
response, Miller units: 180
//
mutationNotation: chain 1 D393S
response, Miller units: 160

For the next question, use this variant.
Value of measured response for the entry chain 1 M378R : 240
